- procedure-details: Metabolic stability in mouse liver microsomes assessed as parent compound remaining at 0.5 uM preincubated with compound followed by NADPH addition and measured after 10 mins
- Type: ADME, Microsome
- measurement-parameters: read-out: Stability
measurement-label: remaining at 10 min, 0.5 µM (%)

N#CC(C(=O)NCC(=O)NC1COC1)c1nc2ccc(-c3ccc(F)nc3)cc2s1 (racemic) = 87
N#CC(C(=O)NCC(=O)NC1CC1)c1nc2ccc(-c3ccccc3)cc2s1 (racemic) = 86
CN1CCN(C(=O)c2ccc(-c3ccc4nc(C(C#N)C(=O)NCC(=O)NC5CC5)sc4c3)cc2)CC1 (racemic) = 91
N#CC(C(=O)NCC(=O)NC1CC1)c1nc2ccc(-c3ccc(C(=O)N4CCOCC4)cc3)cc2s1 (racemic) = 100
CN(C)C(=O)c1cccc(-c2ccc3nc(C(C#N)C(=O)NCC(=O)NC4CC4)sc3c2)c1 (racemic) = 99

###

- target-or-system: Cytochrome P450 2C9 (Homo sapiens)
- Sequence (P11712 whole entry): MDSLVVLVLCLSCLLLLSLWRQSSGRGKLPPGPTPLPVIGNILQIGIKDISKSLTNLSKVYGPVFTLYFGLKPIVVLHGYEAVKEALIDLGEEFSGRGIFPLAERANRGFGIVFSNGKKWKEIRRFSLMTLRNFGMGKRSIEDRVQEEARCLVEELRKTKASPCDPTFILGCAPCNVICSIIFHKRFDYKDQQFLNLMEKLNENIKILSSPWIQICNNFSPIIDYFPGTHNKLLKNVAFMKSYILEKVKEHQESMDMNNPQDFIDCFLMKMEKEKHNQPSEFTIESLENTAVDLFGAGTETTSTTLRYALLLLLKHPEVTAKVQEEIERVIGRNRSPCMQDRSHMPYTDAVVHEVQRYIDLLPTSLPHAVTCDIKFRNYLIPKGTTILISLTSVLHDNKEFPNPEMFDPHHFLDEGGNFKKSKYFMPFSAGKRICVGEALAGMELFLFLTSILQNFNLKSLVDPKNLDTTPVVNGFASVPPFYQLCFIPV
pIC50: −log10 of the molar value.
measurement-label: pIC50

Please report the recorded pIC50 for CN1CCN(C(=O)c2ccc(-c3ccc4nc(C(C#N)C(=O)NCC(=O)NC5CC5)sc4c3)cc2)CC1 (racemic) .
< 4.74

###

- procedure-details: Permeability across apical to basolateral side in human Caco2 cells
- Assay type: ADME, cell-based
- measurement-parameters: Caco-2, read-out: permeability
measurement-label: Papp A→B (×10⁻⁶ cm/s)

N#CC(C(=O)NCC(=O)NC1CC1)c1nc2ccc(-c3ccc(C(=O)N4CCOCC4)cc3)cc2s1 (racemic) = 1.7
N#CC(C(=O)NCC(=O)NC1CC1)c1nc2ccc(-c3ccccc3)cc2s1 (racemic) = 2

###

- procedure-details: Permeability across apical to basolateral side in human Caco2 cells
- Format: ADME, cell-based
- measurement-parameters: Caco-2, read-out: permeability
measurement-label: Papp A→B

Please report the recorded Papp A→B for CN(C)C(=O)c1cccc(-c2ccc3nc(C(C#N)C(=O)NCC(=O)NC4CC4)sc3c2)c1 (racemic) .
< 1.5 ×10⁻⁶ cm/s

And CN1CCN(C(=O)c2ccc(-c3ccc4nc(C(C#N)C(=O)NCC(=O)NC5CC5)sc4c3)cc2)CC1 (racemic) ?
< 1.5 ×10⁻⁶ cm/s

And N#CC(C(=O)NCC(=O)NC1COC1)c1nc2ccc(-c3ccc(F)nc3)cc2s1 (racemic) ?
< 1.5 ×10⁻⁶ cm/s

Sourced from ChEMBL document CHEMBL4396970
